Tested on: WT Max(13-93) synthetic (M65Nle)
test protocol: PBM 8-mer E-score (E-score (rank enrichment, -0.5 to 0.5)); higher = stronger preferential binding
Over roughly 33,000 sequences, “E-score (rank enrichment, -0.5 to 0.5)” has its median near -0.0075; the highest 2% begin near 0.23. This excerpt belongs to a sample that is enriched for the highest values.
Field: class. Source value: PBM 8-mer E-score. Ranges: low (below 0.07), medium (0.07 to below 0.2), high (0.2 or more)

Check out these entries, answers already filled in.
>>> classification("ACATAAAT")
"high"
>>> classification("CGGGGTCC")
"low"
>>> classification("CTATAAAA")
"medium"
>>> classification("ATACGCAG")
"low"
>>> classification("ATCACGCG")
"high"

--- query ---
Incoming: Entry GGATAAAA belongs to which category?
Outgoing: medium
